- target or test system: Recombinant SrtA from S. aureus ATCC6538p (Staphylococcus aureus, UniProt Q2FV99)
- Construct: no tag is named in the print
- Sequence (Q2FV99 whole entry): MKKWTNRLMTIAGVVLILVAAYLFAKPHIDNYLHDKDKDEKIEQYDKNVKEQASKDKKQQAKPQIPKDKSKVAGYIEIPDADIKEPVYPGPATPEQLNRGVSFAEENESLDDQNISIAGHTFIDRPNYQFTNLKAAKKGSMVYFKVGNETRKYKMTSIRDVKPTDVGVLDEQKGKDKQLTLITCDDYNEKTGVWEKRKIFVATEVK
- assay text: SrtA inhibition assay (fluorescence-based enzymatic assay, Abz-LPETG-Dnp substrate)
- test context: SrtA IC50, recombinant SrtA from S. aureus ATCC6538p; mean ± SD (n = 3)
Structures can show the parent of a compound that is named as a salt.
Below, each entry is listed with its recorded log10 IC50.
Hi team, quick reminder: these entries are log10 of IC50 (µM).

Take a look at these entries with their results.
O=c1c(O)c(-c2ccc(O)c(O)c2)oc2cc(O)cc(O)c12 [Quercetin, quercetin, reference compound]; 2.20
C[C@H]1OC(=O)c2cc3c(cc21)[C@@]1(C)CC[C@@H](O)c2coc(c21)C3=O; 1.68
C[C@]12CCCc3coc(c31)C(=O)c1cc3c(cc12)C(O)CCC3O (stereo partly shown) [Compound 3, 13,14,15,16-tetrahydroxestoquinol]; 1.71
C[C@@]12CCC(=O)c3coc(c31)C(=O)c1cc3c(O)ccc(OS(=O)(=O)O)c3cc12 [Compound 1, halenaquinol sulfate]; 2.01
C[C@@]12CCC(=O)c3coc(c31)C(=O)c1cc3c(O)ccc(O)c3cc12; 1.14

Consider the record given below.
Reported log10 IC50 ( C[C@]12CCCc3coc(c31)C(=O)c1cc3c(cc12)C(=O)C=C(NCCS(=O)(=O)O)C3=O ) = 2.12

====

- target or test system: Recombinant SrtA from S. aureus ATCC6538p (Staphylococcus aureus, UniProt Q2FV99)
- Construct: no tag is named in the print; made in house; host or cells: Escherichia coli
- assay text: SrtA inhibition assay (fluorescence-based enzymatic assay, Abz-LPETG-Dnp substrate)
- Type: biochemical
quantity kind: pKi
A value of pKi is the negative decimal logarithm of a concentration given in moles per litre.

C[C@@]12CCC(=O)c3coc(c31)C(=O)c1cc3c(O)ccc(O)c3cc12 [Compound 2, halenaquinol] yielded pKi of 5.02
